These measurements were taken from ChEMBL document CHEMBL3046729.

Tested on: MDA-MB-231
Test: Cytotoxicity against Homo sapiens (human) MDA-MB-231 cells assessed as inhibition of cell proliferation after 72 hr by MTT assay
Assay type: functional, cell-based
Conditions: MDA-MB-231, 72 h
Items are presented alongside their recorded IC50.

molecule: Oc1ccc(-c2nc(-c3ccc(OCCN4CCCCC4)cc3)c(-c3ccccc3)[nH]2)cc1
limit.sign: <
IC50 [µM]: 0.1
--
molecule: CC/C(=C(\c1ccccc1)c1ccc(OCCN(C)C)cc1)c1ccccc1 [TAMOXIFEN]
limit.sign: =
IC50 [µM]: 25.1
--
molecule: Fc1ccc(-c2nc(-c3ccc(OCCN4CCCCC4)cc3)c(-c3ccccc3)[nH]2)cc1
limit.sign: =
IC50 [µM]: 78

====

Items are presented alongside their recorded IC50.
Tested on: MDA-MB-231
Assay: Cytotoxicity against Homo sapiens (human) MDA-MB-231 cells assessed as inhibition of cell proliferation after 72 hr by MTT assay
Type: functional, cell-based
Conditions: MDA-MB-231, 72 h
quantity.measured: IC50 (µM)

smi: CN(C)CCOc1ccc(-c2nc(-c3ccccc3)[nH]c2-c2ccccc2)cc1
quantity.measured: IC50
limit.sign: =
value.observed: 53

smi: COc1ccc(-c2nc(-c3ccc(OCCN(C)C)cc3)c(-c3ccccc3)[nH]2)cc1
quantity.measured: IC50
limit.sign: =
value.observed: 42

smi: CN(C)CCOc1ccc(-c2nc(-c3ccc(O)cc3)[nH]c2-c2ccccc2)cc1
quantity.measured: IC50
limit.sign: =
value.observed: 70

smi: COc1ccc(-c2nc(-c3ccc(OCCN4CCCCC4)cc3)c(-c3ccccc3)[nH]2)cc1
quantity.measured: IC50
limit.sign: =
value.observed: 65

smi: c1ccc(-c2nc(-c3ccc(OCCN4CCCCC4)cc3)c(-c3ccccc3)[nH]2)cc1
quantity.measured: IC50
limit.sign: <
value.observed: 0.1

====

Tested on: MCF7
Experiment: Cytotoxicity against Homo sapiens (human) MCF7 cells assessed as inhibition of cell proliferation after 72 hr by MTT assay
Assay type: functional, cell-based
Settings: MCF7, 72 h
Items are presented alongside their recorded IC50.
quantity.measured: IC50 (µM)

compound: Fc1ccc(-c2nc(-c3ccc(OCCN4CCCCC4)cc3)c(-c3ccccc3)[nH]2)cc1
limit.sign: >
value.observed: 100

compound: CN(C)CCOc1ccc(-c2nc(-c3ccc(O)cc3)[nH]c2-c2ccccc2)cc1
limit.sign: =
value.observed: 82

compound: CC/C(=C(\c1ccccc1)c1ccc(OCCN(C)C)cc1)c1ccccc1 [TAMOXIFEN]
limit.sign: =
value.observed: 55.5

compound: Oc1ccc(-c2nc(-c3ccc(OCCN4CCCCC4)cc3)c(-c3ccccc3)[nH]2)cc1
limit.sign: <
value.observed: 0.1

compound: COc1ccc(-c2nc(-c3ccc(OCCN4CCCCC4)cc3)c(-c3ccccc3)[nH]2)cc1
limit.sign: =
value.observed: 71

compound: c1ccc(-c2nc(-c3ccc(OCCN4CCCCC4)cc3)c(-c3ccccc3)[nH]2)cc1
limit.sign: <
value.observed: 0.1
